target: Cytochrome P450 3A4 (Homo sapiens) (UniProt P08684); assay: Cytochrome panel assay with activity outcomes; details: recombinant CYP, pro-luciferin dealkylation, luminescence, p450-cyp3a4; series mostly up to 57.1 µM
Sequence (P08684 whole entry, looked up): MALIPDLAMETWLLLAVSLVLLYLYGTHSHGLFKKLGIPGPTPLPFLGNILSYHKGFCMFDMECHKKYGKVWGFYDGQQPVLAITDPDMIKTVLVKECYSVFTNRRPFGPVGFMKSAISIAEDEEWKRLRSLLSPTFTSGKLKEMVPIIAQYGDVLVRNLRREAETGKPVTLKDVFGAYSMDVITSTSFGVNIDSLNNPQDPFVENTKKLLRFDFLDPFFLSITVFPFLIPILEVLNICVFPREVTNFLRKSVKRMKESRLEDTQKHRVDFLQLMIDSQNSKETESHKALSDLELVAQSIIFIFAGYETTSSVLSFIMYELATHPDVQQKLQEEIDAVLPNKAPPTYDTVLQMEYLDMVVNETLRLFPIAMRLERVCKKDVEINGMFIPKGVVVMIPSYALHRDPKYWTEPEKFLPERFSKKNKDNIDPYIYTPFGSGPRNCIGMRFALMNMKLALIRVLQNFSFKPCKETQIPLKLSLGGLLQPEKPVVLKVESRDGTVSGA
About 5,100 (32%) of roughly 16,000 compounds were called active. About 25% were inconclusive and are not listed. The call rests on the fitted dose curve; in most records, active means well fitted curve in the direction sought with a large enough effect; inconclusive means small, poorly fitted or top-dose-only effect, or effect the other way; inactive means no such curve, though single readings can be large or run the other way. The list shows a part of the results.
Labels: TRUE = active, FALSE = inactive

molecule	classification
Cn1cccc1C(=O)N1CCC[C@@]2(CCN(Cc3nccs3)C2)C1	TRUE
O=C(O)CCc1ccc(-c2ccc(Cl)cc2)n1CCC(=O)O	FALSE
CNC(=O)CCc1nc(-c2ccc(C(C)(C)C)cc2)no1	FALSE
CO[C@]1(NC(=O)Cc2cccs2)C(=O)N2C(C(=O)O)=C(COC(N)=O)CS[C@H]21	FALSE
COc1ccc(-c2noc(CCCC(=O)NCCc3ccccc3)n2)cc1OC	TRUE
CCC(=O)Nc1nonc1-c1nc2ccccc2n1N(C(=O)CC)C(=O)CC	TRUE
CC(C)NC[C@@H](O)COc1ccccc1-n1cccc1	FALSE
CCn1c(SCc2nc3ccccc3[nH]2)nnc1-c1ccc(OC)cc1	TRUE
CN(C)c1ccc(-c2nc(N(C)Cc3ccco3)c3ccccc3n2)cc1	TRUE
Cc1ccccc1NC(=O)C(C)c1cccc(C(=O)c2ccccc2)c1 (stereo not given)	TRUE
COc1ccc2[nH]c3c(c2c1)CN(C)CC3	FALSE
COC(=O)Nc1nc2ccc(C(=O)c3ccccc3)cc2[nH]1	FALSE
CN1CCN(c2ncc3nc(-c4ccccc4)c(=O)n(CCc4ccccc4)c3n2)CC1	FALSE
Cc1cc(C)c(S(=O)(=O)n2ccc(-c3ccc(OCCN(C)c4ccccn4)cc3)n2)c(C)c1	TRUE
CN1CCN(C(=O)c2ccc3c(=O)n4c(nc3c2)CCCCC4)CC1	FALSE

* * *

// reported activity, negative = inhibition for each item listed
molecular target: Cytochrome P450 3A4 (Homo sapiens) (UniProt P08684); assay: Cytochrome panel assay with activity outcomes; conditions: recombinant CYP, pro-luciferin dealkylation, luminescence, p450-cyp3a4; series mostly up to 57.1 µM; on activity, negative = inhibition: on the % scale 0 is the no-effect control and ±100 the full control effect
The whole screen tested about 16,000 compounds, of which about 5,100 (32%) were called active. Not shown: some 25% with an inconclusive outcome. This is one part of the list.
parameterMeasured: activity, negative = inhibition

compound	subjectOfTest	result
O=C1[C@H]2CCn3c(=O)n(-c4ccccc4)c(=O)n3[C@H]2[C@H](O)[C@H]2O[C@@H]12	Cytochrome P450 3A4 (Homo sapiens) (UniProt P08684)	-11.9% [at 11.4 µM] (inactive)
CCOC(=O)CN(C(=O)CCC(=O)Nc1cc(C)on1)C(C(=O)NC1CCCC1)c1cccnc1 (stereo not drawn)	Cytochrome P450 3A4 (Homo sapiens) (UniProt P08684)	-13% [at 2.29 µM] (inactive)
COc1ccc(C(=O)N2CC3(CC(c4cccc([N+](=O)[O-])c4)=NO3)C[C@H]2C(=O)NCC(N)=O)cc1 (stereo partly drawn)	Cytochrome P450 3A4 (Homo sapiens) (UniProt P08684)	15.2% [at 2.29 µM] (inactive)
O[C@@H](c1cc([C@@]23C[C@H]4CC[C@@H]2C[C@H](C4)C3)nc2c(Cl)cc(Cl)cc12)[C@@H]1CCCCN1	Cytochrome P450 3A4 (Homo sapiens) (UniProt P08684)	-22.3% [at 11.4 µM] (inactive)
CCC(=O)NC(=S)Nc1ccc(S(=O)(=O)NC(C)=O)cc1	Cytochrome P450 3A4 (Homo sapiens) (UniProt P08684)	18.1% [at 2.29 µM] (inactive)
C[C@H](NC(=O)c1ccc(Cl)c(Cl)c1)c1ccc(-c2ccccc2)cc1	Cytochrome P450 3A4 (Homo sapiens) (UniProt P08684)	-6.52% [at 11.4 µM] (inactive)
Cc1ccc(-c2nn(C)c(=O)c3ccccc23)cc1CNC(=O)Cn1nc(-c2ccccc2)c2ccccc2c1=O	Cytochrome P450 3A4 (Homo sapiens) (UniProt P08684)	-27.5% [at 11.4 µM] (inactive)
CC(C)CCN1C(=O)c2ccc(-c3nc4ccccc4c(=O)o3)cc2C1=O	Cytochrome P450 3A4 (Homo sapiens) (UniProt P08684)	-5.78% [at 11.4 µM] (inactive)
